Tested on: NCI-H2122
Experiment: combination cScore with adagrasib (Bliss gap around IC50) (%PoC); higher = stronger additive effect
I'd appreciate it if you could supply combination cScore with adagrasib values for the items below.
Answers are plain numbers.

COMPOUND	combination cScore with adagrasib
COC(=O)c1ccc2c(c1)NC(=O)/C2=C(\Nc1ccc(N(C)C(=O)CN2CCN(C)CC2)cc1)c1ccccc1 [Nintedanib] + C=C(F)C(=O)N1CCN(c2nc(OC[C@@H]3CCCN3C)nc3c2CCN(c2cccc4cccc(Cl)c24)C3)C[C@@H]1CC#N	7.6
C[C@H](Cc1ccc(O)c(O)c1)[C@@H](C)Cc1ccc(O)c(O)c1 [Masoprocol] + C=C(F)C(=O)N1CCN(c2nc(OC[C@@H]3CCCN3C)nc3c2CCN(c2cccc4cccc(Cl)c24)C3)C[C@@H]1CC#N	1.34
O=C(/C=C/N1C[C@H]2C[C@@H]1CN2c1ccccn1)c1ccccc1O [PFI-3] + C=C(F)C(=O)N1CCN(c2nc(OC[C@@H]3CCCN3C)nc3c2CCN(c2cccc4cccc(Cl)c24)C3)C[C@@H]1CC#N	15.8
O=c1[nH]cc(F)c(=O)[nH]1 [Fluorouracil (5-FU)] + C=C(F)C(=O)N1CCN(c2nc(OC[C@@H]3CCCN3C)nc3c2CCN(c2cccc4cccc(Cl)c24)C3)C[C@@H]1CC#N	9.62
CC(C)NC[C@@H](C(=O)N1CCN(c2ncnc3c2[C@H](C)C[C@H]3O)CC1)c1ccc(Cl)cc1 [Ipatasertib] + C=C(F)C(=O)N1CCN(c2nc(OC[C@@H]3CCCN3C)nc3c2CCN(c2cccc4cccc(Cl)c24)C3)C[C@@H]1CC#N	1.14

Report combination cScore with adagrasib for every entry below.
1. C[C@@H]1C[C@H]2[C@@H]3CCC4=CC(=O)C=C[C@]4(C)[C@@]3(F)[C@@H](O)C[C@]2(C)[C@@]1(O)C(=O)CO [Dexamethasone] + C=C(F)C(=O)N1CCN(c2nc(OC[C@@H]3CCCN3C)nc3c2CCN(c2cccc4cccc(Cl)c24)C3)C[C@@H]1CC#N
2. Nc1cc(C(F)(F)F)c(-c2cc(N3CCOCC3)nc(N3CCOCC3)n2)cn1 [BKM120] + C=C(F)C(=O)N1CCN(c2nc(OC[C@@H]3CCCN3C)nc3c2CCN(c2cccc4cccc(Cl)c24)C3)C[C@@H]1CC#N

1: -4.66; 2: 12.9

Form: compound = CS(=O)(=O)c1ccc(C(=O)Nc2ccc(Cl)c(-c3ccccn3)c2)c(Cl)c1 [Vismodegib] + C=C(F)C(=O)N1CCN(c2nc(OC[C@@H]3CCCN3C)nc3c2CCN(c2cccc4cccc(Cl)c24)C3)C[C@@H]1CC#N ; combination cScore with adagrasib = 3.61

---

System: NCI-H2122
Assay: combination cScore with adagrasib (Bliss gap around IC50) (%PoC); higher = stronger additive effect
For each entry below, report its combination cScore with adagrasib value.
Answers are plain numbers.

Some entries whose results are on file:
COMPOUND	combination cScore with adagrasib
N[C@@H](Cc1ccc(N(CCCl)CCCl)cc1)C(=O)O [Melphalan] + C=C(F)C(=O)N1CCN(c2nc(OC[C@@H]3CCCN3C)nc3c2CCN(c2cccc4cccc(Cl)c24)C3)C[C@@H]1CC#N	3.55
CNC(=O)c1cc(Oc2ccc(NC(=O)Nc3ccc(Cl)c(C(F)(F)F)c3)c(F)c2)ccn1 [Regorafenib] + C=C(F)C(=O)N1CCN(c2nc(OC[C@@H]3CCCN3C)nc3c2CCN(c2cccc4cccc(Cl)c24)C3)C[C@@H]1CC#N	-3.41

Go through the list and state combination cScore with adagrasib for each entry.
1. C/C=C1\NC(=O)[C@H]2CSSCC/C=C/[C@H](CC(=O)N[C@H](C(C)C)C(=O)N2)OC(=O)[C@H](C(C)C)NC1=O [Romidepsin] + C=C(F)C(=O)N1CCN(c2nc(OC[C@@H]3CCCN3C)nc3c2CCN(c2cccc4cccc(Cl)c24)C3)C[C@@H]1CC#N
2. COc1cc2nccc(Oc3ccc(NC(=O)C4(C(=O)Nc5ccc(F)cc5)CC4)cc3)c2cc1OC [XL-184] + C=C(F)C(=O)N1CCN(c2nc(OC[C@@H]3CCCN3C)nc3c2CCN(c2cccc4cccc(Cl)c24)C3)C[C@@H]1CC#N

[-1.65, 4.53]

---

Would you kindly list relative IC50 of cell viability for each of these compounds?
Tested on: NCI-H2122
Assay: relative IC50 of cell viability (CellTiter-Glo); higher = less potent
One number for each entry, in nM.

Here is how some compounds turned out for relative IC50 of cell viability.
COMPOUND	TARGET_OR_SYSTEM	EXPERIMENTAL_READOUT	RECORDED_MEASUREMENT
Nc1ncn([C@@H]2O[C@H](CO)[C@@H](O)[C@H]2O)c(=O)n1 [Azacitidine] (top concentration tested 9999.8 nM)	NCI-H2122	relative IC50 of cell viability	1940
O=c1[nH]cc(F)c(=O)[nH]1 [Fluorouracil (5-FU)] (top concentration tested 1000.2 nM)	NCI-H2122	relative IC50 of cell viability	945
CN(Cc1cnc2nc(N)nc(N)c2n1)c1ccc(C(=O)N[C@@H](CCC(=O)O)C(=O)O)cc1 [Methotrexate] (top concentration tested 10000 nM)	NCI-H2122	relative IC50 of cell viability	7.98
Nc1cc(C(F)(F)F)c(-c2cc(N3CCOCC3)nc(N3CCOCC3)n2)cn1 [BKM120] (top concentration tested 10000 nM)	NCI-H2122	relative IC50 of cell viability	921
CC(C)n1nc(-c2ccc3oc(N)nc3c2)c2c(N)ncnc21 [MLN-0128] (top concentration tested 99.893 nM)	NCI-H2122	relative IC50 of cell viability	25.9

Provide reported relative IC50 of cell viability for each item, in the same order as listed.
1. COc1cc2c(NC3CCN(C(C)C)CC3)nc(C3CCCCC3)nc2cc1OCCCN1CCCC1 [UNC0638] (top concentration tested 10000 nM)
2. CNCc1ccc(-c2cc(-c3nc(-c4ccc(S(=O)(=O)C(C)C)cc4)cnc3N)on2)cc1 [VE-822/VX-970] (top concentration tested 9999.9 nM)
3. O=C1c2c(O)ccc(O)c2C(=O)c2c(NCCNCCO)ccc(NCCNCCO)c21 [Mitoxantrone] (top concentration tested 999.98 nM)
4. COc1cc2cc(c1Cl)N(C)C(=O)C[C@H](OC(=O)C(C)C)[C@]1(C)O[C@@H]1[C@H](C)[C@@H]1C[C@@](O)(NC(=O)O1)[C@H](OC)/C=C/C=C(\C)C2 [Ansamitocin P3] (top concentration tested 99.976 nM)

1. 8590
2. 278
3. 62.4
4. 0.0585

For each of the compounds below, note its relative IC50 of cell viability.
1. CNS(=O)(=O)Nc1nccc(Cc2c(C)c3ccc(Oc4ncccn4)cc3oc2=O)c1F (top concentration tested 10000 nM)
2. Cc1ccc(NC(=O)c2ccnc(C(F)(F)F)c2)cc1-c1cc(OCCO)nc(N2CCOCC2)c1 [LXH-254] (top concentration tested 1000 nM)
3. COc1ncc(-c2nc3c(n2C(C)C)[C@H](c2ccc(Cl)cc2)N(c2cc(Cl)cn(C)c2=O)C3=O)c(OC)n1 [HDM-201] (top concentration tested 9999.9 nM)

130
200
126

---

Provide the reported combination cScore with adagrasib of each item.
Test system: SW837
Assay: combination cScore with adagrasib (Bliss gap around IC50) (%PoC); higher = stronger additive effect

Example cases with answers are listed next.
MOLECULE	combination cScore with adagrasib
CCN(CC)CCNC(=O)c1c(C)[nH]c(/C=C2\C(=O)Nc3ccc(F)cc32)c1C [Sunitinib] + C=C(F)C(=O)N1CCN(c2nc(OC[C@@H]3CCCN3C)nc3c2CCN(c2cccc4cccc(Cl)c24)C3)C[C@@H]1CC#N	4.56
CN(Cc1cnc2nc(N)nc(N)c2n1)c1ccc(C(=O)N[C@@H](CCC(=O)O)C(=O)O)cc1 [Methotrexate] + C=C(F)C(=O)N1CCN(c2nc(OC[C@@H]3CCCN3C)nc3c2CCN(c2cccc4cccc(Cl)c24)C3)C[C@@H]1CC#N	-8.99
C=C(c1ccc(C(=O)O)cc1)c1cc2c(cc1C)C(C)(C)CCC2(C)C [Bexarotene] + C=C(F)C(=O)N1CCN(c2nc(OC[C@@H]3CCCN3C)nc3c2CCN(c2cccc4cccc(Cl)c24)C3)C[C@@H]1CC#N	0.535
CC(O)(CS(=O)(=O)c1ccc(F)cc1)C(=O)Nc1ccc(C#N)c(C(F)(F)F)c1 (stereo unspecified) [Bicalutamide] + C=C(F)C(=O)N1CCN(c2nc(OC[C@@H]3CCCN3C)nc3c2CCN(c2cccc4cccc(Cl)c24)C3)C[C@@H]1CC#N	2.23
CC(C)(C)c1ccc(S(=O)(=O)NCc2ccc(C(=O)Nc3cccnc3)cc2)cc1 [STF-31] + C=C(F)C(=O)N1CCN(c2nc(OC[C@@H]3CCCN3C)nc3c2CCN(c2cccc4cccc(Cl)c24)C3)C[C@@H]1CC#N	10.7

Input CS(=O)(=O)c1ccc(C(=O)Nc2ccc(Cl)c(-c3ccccn3)c2)c(Cl)c1 [Vismodegib] + C=C(F)C(=O)N1CCN(c2nc(OC[C@@H]3CCCN3C)nc3c2CCN(c2cccc4cccc(Cl)c24)C3)C[C@@H]1CC#N . Output combination cScore with adagrasib: 15.7
